Test system: Trypanosoma gambiense bloodstream forms
Experiment: Drug sensitivity assay, dose–response curves, T. gambiense
Assay type: cell-based
Conditions: bloodstream forms; mean, n ≥ 3
pEC50: −log10 of the molar value.
REPORTED PROPERTY: pEC50

MOLECULAR STRING: CC(C)(C)OC(=O)NNc1ccc(C(=O)NCCCCCCCCCC[P+](c2ccccc2)(c2ccccc2)c2ccccc2)cc1.[Cl-]
REPORTED PROPERTY: pEC50
TEST VALUE: 7.22
--
MOLECULAR STRING: O=C(NCCCCCCCCCC[P+](c1ccccc1)(c1ccccc1)c1ccccc1)c1ccc(-n2nc(-c3ccccc3O)nc2-c2ccccc2O)cc1.[Cl-]
REPORTED PROPERTY: pEC50
TEST VALUE: 7.98
--
MOLECULAR STRING: Oc1ccccc1-c1nc(-c2ccccc2O)n(CCCCCCCCCC[P+](c2ccccc2)(c2ccccc2)c2ccccc2)n1.[Br-]
REPORTED PROPERTY: pEC50
TEST VALUE: 8.12

----------
// reported T. brucei selectivity per item
Test system: Trypanosoma brucei bloodstream forms
Experiment: Drug sensitivity assay, dose–response curves, T. brucei
Assay type: cell-based
Settings: relative to human BJ fibroblast EC50

COMPOUND: O=C(NCCCCCCCC[P+](c1ccccc1)(c1ccccc1)c1ccccc1)c1ccc(-n2nc(-c3ccccc3O)nc2-c2ccccc2O)cc1.[Cl-] [compound 12, triphenylphosphine-C8-DFX]
TARGET OR TEST SYSTEM: Trypanosoma brucei bloodstream forms
QUALIFIER: =
T. brucei selectivity: 55
--
COMPOUND: Oc1ccccc1-c1nc(-c2ccccc2O)n(CCCCCCCCCC[P+](c2ccccc2)(c2ccccc2)c2ccccc2)n1.[Br-] [compound 11, triphenylphosphineBr-C10-norbenzoic-DFX]
TARGET OR TEST SYSTEM: Trypanosoma brucei bloodstream forms
QUALIFIER: >
T. brucei selectivity: 300
--
COMPOUND: CCCCCCCC[P+](CCCCCCCC)(CCCCCCCC)CCCCCCCCCCN(CCCCCCCCCC[P+](CCCCCCCC)(CCCCCCCC)CCCCCCCC)CCCCCN(O)C(=O)CCC(=O)NCCCCCN(O)C(=O)CCC(=O)NCCCCCN(O)C(C)=O.Cl.[Cl-].[Cl-] [compound 8, (trioctylphosphine-C10)2-DFO]
TARGET OR TEST SYSTEM: Trypanosoma brucei bloodstream forms
QUALIFIER: =
T. brucei selectivity: 22
--
COMPOUND: CC(=O)N(O)CCCCCNC(=O)CCC(=O)N(O)CCCCCNC(=O)CCC(=O)N(O)CCCCCN(CCCCCCCCCC[P+](Cc1ccccc1)(Cc1ccccc1)Cc1ccccc1)CCCCCCCCCC[P+](Cc1ccccc1)(Cc1ccccc1)Cc1ccccc1.Cl.[Cl-].[Cl-] [compound 7, (tribenzylphosphine-C10)2-DFO]
TARGET OR TEST SYSTEM: Trypanosoma brucei bloodstream forms
QUALIFIER: =
T. brucei selectivity: 14

----------
Test system: Babesia divergens intracellular stages
Assay: Drug sensitivity assay, dose–response curves, B. divergens
Format: cell-based
Details: intracellular stages; mean, n ≥ 3
pEC50: −log10 of the molar value.

COMPOUND: Oc1ccccc1-c1nc(-c2ccccc2O)n(CCCCCCCCCC[P+](c2ccccc2)(c2ccccc2)c2ccccc2)n1.[Br-] [compound 11, triphenylphosphineBr-C10-norbenzoic-DFX]
TARGET OR TEST SYSTEM: Babesia divergens intracellular stages
pEC50: 7.76
//
COMPOUND: CC(C)(C)OC(=O)NNc1ccc(C(=O)NCCCCCCCCCC[P+](c2ccccc2)(c2ccccc2)c2ccccc2)cc1.[Cl-] [compound 15]
TARGET OR TEST SYSTEM: Babesia divergens intracellular stages
pEC50: 7.12
//
COMPOUND: O=C(NCCCCCCCCCC[P+](c1ccccc1)(c1ccccc1)c1ccccc1)c1ccc(-n2nc(-c3ccccc3O)nc2-c2ccccc2O)cc1.[Cl-] [compound 14, triphenylphosphine-C10-DFX]
TARGET OR TEST SYSTEM: Babesia divergens intracellular stages
pEC50: 7.39

----------
Tested on: Trypanosoma brucei bloodstream forms
Assay: Drug sensitivity assay, dose–response curves, T. brucei
Assay type: cell-based
Conditions: relative to human BJ fibroblast EC50
From the text: Human fibroblasts, T. brucei, T. gambiense, P. falciparum, L. mexicana, and B. divergens were cultivated as described previously, and dose–response curves were obtained by their cultivation on 96 well plates in a 2-fold seriel dilution of the appropriate drug.
// reported T. brucei selectivity per item
REPORTED PROPERTY: T. brucei selectivity

MOLECULE: CC(=O)N(O)CCCCCNC(=O)CCC(=O)N(O)CCCCCNC(=O)CCC(=O)N(O)CCCCCN(CCCCCCCCCC[P+](c1ccccc1)(c1ccccc1)c1ccccc1)CCCCCCCCCC[P+](c1ccccc1)(c1ccccc1)c1ccccc1.[Cl-].[Cl-] [compound 2, (triphenylphosphine-C10)2-DFO]
REPORTED PROPERTY: T. brucei selectivity
TEST VALUE: 156
--
MOLECULE: O=C(NCCCCCC[P+](c1ccccc1)(c1ccccc1)c1ccccc1)c1ccc(-n2nc(-c3ccccc3O)nc2-c2ccccc2O)cc1.[Cl-] [compound 13, triphenylphosphine-C6-DFX]
REPORTED PROPERTY: T. brucei selectivity
TEST VALUE: 302
--
MOLECULE: CC(=O)N(O)CCCCCNC(=O)CCC(=O)N(O)CCCCCNC(=O)CCC(=O)N(O)CCCCCN(CCCCCCCCCCCC[P+](c1ccccc1)(c1ccccc1)c1ccccc1)CCCCCCCCCCCC[P+](c1ccccc1)(c1ccccc1)c1ccccc1.Cl.[Cl-].[Cl-] [compound 6, (triphenylphosphine-C12)2-DFO]
REPORTED PROPERTY: T. brucei selectivity
TEST VALUE: 50
